Biological target: Replicative DNA helicase DnaB (Mycobacterium tuberculosis)
Assay: DnaB intein splicing inhibitors, dose response, biochemical, cell-free fluorescence (AID 449749)
Type: functional
The source made the active and inactive calls.
Hi! Could you answer with just one of these? active, inactive

Please review the entries below; each comes with its answer.
>>> print(df.to_string())
                                   compound                           measured_target  category_label
0  Cc1ccc2nc(N/N=C\c3ccc([N+](=O)[O-])o3)nc(-c3ccccc3)c2c1  Replicative DNA helicase DnaB (Mycobacterium tuberculosis)        inactive
1               N#Cc1nccnc1S(=O)(=O)c1cccs1  Replicative DNA helicase DnaB (Mycobacterium tuberculosis)          active
2  Cc1ccc(NC(=O)C(=Cc2ccc(C(=O)O)cc2)C(=O)Nc2ccc(C)cc2C)c(C)c1  Replicative DNA helicase DnaB (Mycobacterium tuberculosis)          active

q: Could you kindly confirm the outcome this assay logged for CSc1nc(=S)n(-c2ccc([N+](=O)[O-])cc2)c(C)c1C(C)=O ?
a: active

q: Could you kindly confirm the outcome this assay logged for CC(C)c1n[nH]c2c1C(c1cccnc1)C(C#N)=C(N)O2 (stereo not drawn) ?
a: active

q: Could you kindly confirm the outcome this assay logged for O=C(O)CN1C(=O)/C(=C\c2cccc(OCc3ccc(Cl)cc3Cl)c2)SC1=S ?
a: active

q: Could you kindly confirm the outcome this assay logged for CCc1ccc(S(=O)(=O)/N=C2\C=CC(=O)c3ccccc32)cc1 ?
a: active

q: Could you kindly confirm the outcome this assay logged for CCOc1ccc(N=Nc2c(N)n[nH]c2O)cc1 ?
a: active

q: Could you kindly confirm the outcome this assay logged for Clc1ccc(-n2nnnc2Sc2ncnc3sccc23)cc1 ?
a: active

====

Kindly state EC50 for each of the entries shown.
Molecular target: Peroxisome proliferator-activated receptor gamma/Nuclear receptor coactivator 2 (Homo sapiens, UniProt P37231)
Sequence (P37231 whole entry): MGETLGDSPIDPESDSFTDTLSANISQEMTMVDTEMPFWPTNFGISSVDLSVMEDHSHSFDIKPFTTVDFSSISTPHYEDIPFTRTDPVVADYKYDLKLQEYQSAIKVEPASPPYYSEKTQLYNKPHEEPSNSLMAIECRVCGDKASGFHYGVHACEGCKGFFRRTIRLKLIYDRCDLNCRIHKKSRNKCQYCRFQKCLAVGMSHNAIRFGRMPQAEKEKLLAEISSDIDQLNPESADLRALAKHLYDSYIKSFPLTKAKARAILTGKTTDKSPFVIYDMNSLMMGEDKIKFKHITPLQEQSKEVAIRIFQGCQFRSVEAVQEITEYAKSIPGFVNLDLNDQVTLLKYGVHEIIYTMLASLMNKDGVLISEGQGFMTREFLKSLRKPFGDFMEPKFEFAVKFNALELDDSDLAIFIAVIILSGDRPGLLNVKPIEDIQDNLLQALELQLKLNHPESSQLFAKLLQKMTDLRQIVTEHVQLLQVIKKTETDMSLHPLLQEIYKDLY
Sequence (Q15596 whole entry, further chain): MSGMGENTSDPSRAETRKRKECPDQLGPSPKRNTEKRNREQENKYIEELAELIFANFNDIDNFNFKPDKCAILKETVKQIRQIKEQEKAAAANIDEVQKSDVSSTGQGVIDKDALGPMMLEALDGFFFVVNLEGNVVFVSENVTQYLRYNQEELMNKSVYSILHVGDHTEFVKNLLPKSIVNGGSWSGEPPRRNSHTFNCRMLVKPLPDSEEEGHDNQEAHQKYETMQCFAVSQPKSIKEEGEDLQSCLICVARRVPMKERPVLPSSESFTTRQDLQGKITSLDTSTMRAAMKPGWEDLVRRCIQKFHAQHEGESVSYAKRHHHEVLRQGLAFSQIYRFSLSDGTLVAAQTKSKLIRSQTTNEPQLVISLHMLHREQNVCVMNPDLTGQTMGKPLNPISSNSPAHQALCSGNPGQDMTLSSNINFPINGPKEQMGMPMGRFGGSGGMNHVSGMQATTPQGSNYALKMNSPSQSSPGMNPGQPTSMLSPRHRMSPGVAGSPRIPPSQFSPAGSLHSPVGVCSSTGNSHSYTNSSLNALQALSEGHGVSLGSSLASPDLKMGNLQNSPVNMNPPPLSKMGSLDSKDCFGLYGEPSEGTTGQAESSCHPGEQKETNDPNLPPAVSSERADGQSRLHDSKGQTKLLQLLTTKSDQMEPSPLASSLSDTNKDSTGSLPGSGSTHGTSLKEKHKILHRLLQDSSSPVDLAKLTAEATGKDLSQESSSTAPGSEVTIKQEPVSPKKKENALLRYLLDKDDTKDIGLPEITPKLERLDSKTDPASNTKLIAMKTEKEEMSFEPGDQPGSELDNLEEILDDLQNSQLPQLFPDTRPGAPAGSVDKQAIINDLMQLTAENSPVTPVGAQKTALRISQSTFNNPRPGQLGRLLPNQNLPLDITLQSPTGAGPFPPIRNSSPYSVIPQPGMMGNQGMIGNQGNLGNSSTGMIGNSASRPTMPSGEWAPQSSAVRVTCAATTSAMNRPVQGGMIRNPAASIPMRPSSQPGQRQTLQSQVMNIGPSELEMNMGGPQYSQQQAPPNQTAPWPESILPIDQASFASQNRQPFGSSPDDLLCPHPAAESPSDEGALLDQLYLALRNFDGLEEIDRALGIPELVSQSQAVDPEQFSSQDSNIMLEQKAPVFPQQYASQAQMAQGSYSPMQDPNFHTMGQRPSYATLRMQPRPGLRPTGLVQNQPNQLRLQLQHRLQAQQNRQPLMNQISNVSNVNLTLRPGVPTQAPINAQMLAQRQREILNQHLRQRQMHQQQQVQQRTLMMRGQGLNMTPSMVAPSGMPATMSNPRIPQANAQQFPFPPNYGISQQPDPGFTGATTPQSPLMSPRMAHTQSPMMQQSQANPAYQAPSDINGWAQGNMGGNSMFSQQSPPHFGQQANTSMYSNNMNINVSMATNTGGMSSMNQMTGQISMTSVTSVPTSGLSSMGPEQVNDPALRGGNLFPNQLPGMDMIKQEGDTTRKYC
Assay: TR-FRET dose response biochemical High Throughput Screening assay for agonists of the steroid receptor coactivator 2 (SRC-2) recruitment by the peroxisome proliferator-activated receptor gamma (PPAR gamma): non-selective agonists. [Related pubchem assays: 1297, 1032 ]
Format: functional

>>> print(df.to_string())
                                  compound                  result
0       O=C(O)c1cc(-c2ccc(Cl)s2)nc2ccccc12    20.7 µM (not active)
1  CCn1c(=O)cc(SCC(=O)NCc2ccccn2)c2ccccc21  > 79.4 µM (not active)

Take each entry in turn and give its EC50.
1. CNC(=S)N1N=C(c2ccc(Br)cc2)CC1c1ccc(OC)cc1 (stereo not given)
2. Cc1cc2nc(-c3ccc(SCC(=O)Nc4ccc(S(=O)(=O)N5CCCC5)cc4)nc3)[nH]c2cc1C
3. COC(=O)c1ccc(CSc2ncnc3c2oc2ccccc23)o1

a:
17.3 µM (not active)
11.1 µM (not active)
> 8.82 µM (not active)

====

Kindly state EC50 for each of the entries shown.
Test: Luminescence Cell-Based Dose Confirmation HTS to Identify Inhibitors of Platelet Dense Granule Release. [Related pubchem assays: 1663 (Primary HTS), 1678 (Summary of Project)]
Format: functional
Active and inactive are the calls of the source.

Examples from the recorded data:
>>> print(df.to_string())
                                   compound                 result
0  O=C(NCc1ccc2c(c1)OCO2)C1CCN(S(=O)(=O)c2ccc(F)cc2)CC1  > 112 µM (not active)
1  Oc1nc(CN2CC=C(c3ccccc3)CC2)nc2cc(C(F)(F)F)ccc12  > 112 µM (not active)
2     O=C(Nc1ccc(Cl)c(Cl)c1)Nc1ccccc1C(=O)O       8.59 µM (active)

Now consider a different compound.
Looking up Cn1nnnc1SCC(=O)NC1CCCc2ccccc21 (centres undefined) , I see its EC50 listed as > 112 µM (not active)
